Reported values of diameter of the growth inhibition, F89 for individual entries
Test system: N. gonorrhoeae F89 (high-level cefixime and ceftriaxone resistance)
ASSAY_OVERVIEW: Disk diffusion assay, N. gonorrhoeae F89
Format: cell-based
TEST_CONTEXT: 2.0 μg per disc; disc 6 mm
Supply the numeric figure in mm, leaving out any unit text.

Some solved entries appear below for comparison.
molecule="CC(O)(CF)C(C)(NCCCc1ccc(-c2ccccc2)cc1)C(=O)NO.Cl (stereo not shown)" assayed_system="N. gonorrhoeae F89 (high-level cefixime and ceftriaxone resistance)" measurement_type="diameter of the growth inhibition, F89" reported_measurement=20
molecule="CC(NCCCc1ccc(-c2ccccc2)cc1)(C(=O)NO)C(C)(O)C(F)F.Cl (single isomer, unassigned) [Example 134]" assayed_system="N. gonorrhoeae F89 (high-level cefixime and ceftriaxone resistance)" measurement_type="diameter of the growth inhibition, F89" reported_measurement=28
molecule="CC(CCc1ccc(-c2ccccc2)cc1)(C(=O)NO)C(C)(O)C(F)F (single isomer, unassigned) [Example 3 Isomer B]" assayed_system="N. gonorrhoeae F89 (high-level cefixime and ceftriaxone resistance)" measurement_type="diameter of the growth inhibition, F89" reported_measurement=20

Attention now shifts to the item below.
// map CC(NCCCc1ccc(-c2ccccc2)cc1)(C(=O)NO)C(C)(O)C(F)F.Cl (single isomer, unassigned) [Example 135] to recorded diameter of the growth inhibition, F89 (system: N. gonorrhoeae F89 (high-level cefixime and ceftriaxone resistance))
27

* * *

System: N. gonorrhoeae H041
ASSAY_OVERVIEW: Disk diffusion assay, N. gonorrhoeae H041
Assay type: cell-based
TEST_CONTEXT: Neisseria gonorrhoeae, H041, 20 μg per disc; disc 6 mm; read-out: diameter of the growth inhibition, H041
MEASUREMENT_TYPE: zone of inhibition at 20 µg/disc

compound="C[C@@](O)(C(F)F)[C@H](NCc1ccc(-c2ccccc2)cc1)C(=O)NO [Example 5]" reported_measurement="25 mm"
compound="CC(NCCCc1ccc(-c2ccccc2)cc1)(C(=O)NO)C(C)(O)C(F)F (centres unmarked) [Example 10]" reported_measurement="27 mm"
compound="C[C@@](O)(C(F)F)[C@H](NCc1ccc2cc(-c3ccccc3)ccc2c1)C(=O)NO [Example 149]" reported_measurement="27 mm"
compound="CN1CCN(Cc2ccc(-c3ccc(CCCN[C@H](C(=O)NO)[C@](C)(O)C(F)F)cc3)cc2)CC1 [Example 144]" reported_measurement="0 mm"

Then there is this compound:
# query: zone of inhibition at 20 µg/disc of entry CC(CCc1ccc(-c2ccccc2)cc1)(C(=O)NO)C(C)(O)C(F)F (single isomer, unassigned) [Example 3 Isomer A]
24 mm

* * *

Tested on: N. gonorrhoeae H041
ASSAY_OVERVIEW: Disk diffusion assay, N. gonorrhoeae H041
Assay type: cell-based
TEST_CONTEXT: 2.0 μg per disc; disc 6 mm
MEASUREMENT_TYPE: diameter of the growth inhibition, H041 (mm)
Expressed in mm, but write only the number.

compound="CC(NCCCc1ccc(-c2ccccc2)cc1)(C(=O)NO)C(C)(O)C(F)F.Cl (single isomer, unassigned) [Example 135]" assayed_system="N. gonorrhoeae H041" measure_unit=mm reported_measurement=14

Look up diameter of the growth inhibition, H041: CC(NCCCc1ccc(-c2ccccc2)cc1)(C(=O)NO)C(C)(O)C(F)F.Cl (single isomer, unassigned) [Example 134]
21

Report diameter of the growth inhibition, H041 for CC(CCc1ccc(-c2ccccc2)cc1)(C(=O)NO)C(C)(O)C(F)F (single isomer, unassigned) [Example 3 Isomer B] please.
10

Using the record for CC(O)(CF)C(C)(NCCCc1ccc(-c2ccccc2)cc1)C(=O)NO.Cl (stereo not shown) , report its diameter of the growth inhibition, H041.
14

* * *

Test system: N. gonorrhoeae FA19 (a drug-sensitive strain)
ASSAY_OVERVIEW: Disk diffusion assay, N. gonorrhoeae FA19
Assay type: cell-based
TEST_CONTEXT: Neisseria gonorrhoeae, 2.0 μg per disc; disc 6 mm; read-out: diameter of the growth inhibition, FA19
Values of zone of inhibition at 2 µg/disc greater than or equal to 20 mm map to true (1); values below map to false (0).

Take a look at these entries with their results.
molecule=C[C@@](O)(C(F)F)[C@H](NC(=O)CCc1ccc(-c2ccccc2)cc1)C(=O)NO assayed_system="N. gonorrhoeae FA19 (a drug-sensitive strain)" label_class="true (1)"
molecule=C[C@@](O)(C(F)F)[C@H](NCc1ccc(-c2cccs2)s1)C(=O)NO assayed_system="N. gonorrhoeae FA19 (a drug-sensitive strain)" label_class="false (0)"
molecule=Cc1ccc(-c2ccc(CN[C@H](C(=O)NO)[C@](C)(O)C(F)F)s2)s1 assayed_system="N. gonorrhoeae FA19 (a drug-sensitive strain)" label_class="true (1)"

Hello, I need to know if C[C@@](O)(C(F)F)[C@H](NC/C=C/c1ccc(-c2ccccc2)cc1)C(=O)NO has measured zone of inhibition at 2 µg/disc not below 20 mm. Thanks!
true (1)

Does zone of inhibition at 2 µg/disc meet or surpass 20 mm for C[C@@](O)(C(F)F)[C@H](NCc1ccc(-c2ccccc2)cc1)C(=O)NO ?
true (1)

API: above_or_equal(metric=zone of inhibition at 2 µg/disc, cutoff=20 mm) for item CC(NCc1ccc(-c2ccccc2)cc1)(C(=O)NO)C(C)(O)C(F)F (centres unmarked)
true (1)

Given the entry COc1cc(-c2ccccc2)ccc1CN[C@H](C(=O)NO)[C@](C)(O)C(F)F , answer whether its zone of inhibition at 2 µg/disc meets or surpasses 20 mm.
false (0)

* * *

Quick list: diameter of the growth inhibition, 35/02 per entry.
System: N. gonorrhoeae 35/02 (drug-resistant strain)
ASSAY_OVERVIEW: Disk diffusion assay, N. gonorrhoeae 35/02
Format: cell-based
TEST_CONTEXT: 20 μg per disc; disc 6 mm
Kindly answer with a numeric value in mm, unit omitted.

compound="CC(CCc1ccc(-c2ccccc2)cc1)(C(=O)NO)C(C)(O)C(F)F (single isomer, unassigned) [Example 3 Isomer B]" assayed_system="N. gonorrhoeae 35/02 (drug-resistant strain)" reported_measurement=19
compound="CC(NCCCc1ccc(-c2ccccc2)cc1)(C(=O)NO)C(C)(O)C(F)F.Cl (single isomer, unassigned) [Example 134]" assayed_system="N. gonorrhoeae 35/02 (drug-resistant strain)" reported_measurement=28

Requested read-out diameter of the growth inhibition, 35/02, target or system N. gonorrhoeae 35/02 (drug-resistant strain), entry CC(O)(CF)C(C)(NCCCc1ccc(-c2ccccc2)cc1)C(=O)NO.Cl (stereo not shown)
22

Please state recorded diameter of the growth inhibition, 35/02 (tested on N. gonorrhoeae 35/02 (drug-resistant strain)) of CC(NCCCc1ccc(-c2ccccc2)cc1)(C(=O)NO)C(C)(O)C(F)F.Cl (single isomer, unassigned) [Example 135]
19

* * *

Property: zone of inhibition at 2 µg/disc; scope: individual compounds
Test system: N. gonorrhoeae FA19 (a drug-sensitive strain)
ASSAY_OVERVIEW: Disk diffusion assay, N. gonorrhoeae FA19
Format: cell-based
TEST_CONTEXT: Neisseria gonorrhoeae, 2.0 μg per disc; disc 6 mm; read-out: diameter of the growth inhibition, FA19
The reply should be a number in mm, with the unit left off.

Solved cases (6 shown):
compound="C[C@@](O)(C(F)F)[C@H](NCc1ccc2cc(-c3ccccc3)ccc2c1)C(=O)NO [Example 149]" reported_measurement=22
compound="CC(NCCCc1ccc(-c2ccccc2)cc1)(C(=O)NO)C(O)(CF)CF (centres unmarked) [Example 148]" reported_measurement=19
compound="C[C@@](O)(C(F)F)[C@H](NCc1ccc(-c2ccc(OCCN3CCOCC3)cc2)cc1)C(=O)NO [Example 145]" reported_measurement=0
compound="COc1ccc(-c2ccn(CCCNC(C)(C(=O)NO)C(C)(O)CF)c(=O)c2)cc1 (centres unmarked) [Example 140]" reported_measurement=13
compound="CC(CCn1ccc(-c2ccc(-n3nccn3)cc2)cc1=O)(C(=O)NO)C(C)(O)C(F)F (centres unmarked) [Example 4]" reported_measurement=8
compound="C[C@@](O)(C(F)F)[C@H](NCCCc1ccc(-c2ccccc2)cc1)C(=O)NO [Example 11]" reported_measurement=25

Turning now to a further compound:
Fill in: zone of inhibition at 2 µg/disc of C[C@@](O)(C(F)F)[C@H](NCc1ccc(-c2ccccc2)cc1O)C(=O)NO [Example 141] is ___
21

* * *

Test system: N. gonorrhoeae H041
ASSAY_OVERVIEW: Disk diffusion assay, N. gonorrhoeae H041
Type: cell-based
TEST_CONTEXT: Neisseria gonorrhoeae, H041, 20 μg per disc; disc 6 mm; read-out: diameter of the growth inhibition, H041
MEASUREMENT_TYPE: zone of inhibition at 20 µg/disc
Please answer using the number first and the unit second.

Illustrative cases are given below, each with its answer.
molecule="C[C@@](O)(C(F)F)[C@H](NCc1ccc(-c2ccccc2)cc1O)C(=O)NO [Example 141]" assayed_system="N. gonorrhoeae H041" measurement_type="zone of inhibition at 20 µg/disc" reported_measurement="22 mm"
molecule="C[C@@](O)(C(F)F)[C@H](NC/C=C/c1ccc(-c2ccccc2)cc1)C(=O)NO [Example 147]" assayed_system="N. gonorrhoeae H041" measurement_type="zone of inhibition at 20 µg/disc" reported_measurement="35 mm"
molecule="CC(NCCCc1ccc(-c2ccccc2)cc1)(C(=O)NO)C(O)(CF)CF (stereo not drawn) [Example 148]" assayed_system="N. gonorrhoeae H041" measurement_type="zone of inhibition at 20 µg/disc" reported_measurement="24 mm"
molecule="C[C@@](O)(C(F)F)[C@H](NCc1ccc(-c2ccc(OCCN3CCOCC3)cc2)cc1)C(=O)NO [Example 145]" assayed_system="N. gonorrhoeae H041" measurement_type="zone of inhibition at 20 µg/disc" reported_measurement="11 mm"

Data request, read-out zone of inhibition at 20 µg/disc, for COc1cc(-c2ccccc2)ccc1CN[C@H](C(=O)NO)[C@](C)(O)C(F)F [Example 146]
19 mm

What value of measured zone of inhibition at 20 µg/disc is listed for CC(CCn1ccc(-c2ccc(-n3nccn3)cc2)cc1=O)(C(=O)NO)C(C)(O)C(F)F (stereo not drawn) [Example 4] ?
16 mm

Which zone of inhibition at 20 µg/disc reading was recorded for the molecule C[C@@](O)(C(F)F)[C@H](NCCCc1ccc(-c2ccccc2)cc1)C(=O)NO [Example 11] ?
27 mm

Requested read-out: zone of inhibition at 20 µg/disc. Entry: COc1ccc(-c2ccc(CN[C@H](C(=O)NO)[C@](C)(O)C(F)F)cc2)cc1 [Example 142]
17 mm

So what's the measured zone of inhibition at 20 µg/disc for this one? C[C@@](O)(C(F)F)[C@H](NC(=O)CCc1ccc(-c2ccccc2)cc1)C(=O)NO [Example 14]
26 mm
